molecular target: human VR1 (Homo sapiens, UniProt Q8NER1); construct: expressed in transfected cells; host or cells: HEK293; assay: Human VR1 functional assay (FLIPR intracellular Ca2+); format: cell-based; settings: inhibition of capsaicin response, 1 μM; read-out: h % I (1 μM)
Sequence (Q8NER1 whole entry): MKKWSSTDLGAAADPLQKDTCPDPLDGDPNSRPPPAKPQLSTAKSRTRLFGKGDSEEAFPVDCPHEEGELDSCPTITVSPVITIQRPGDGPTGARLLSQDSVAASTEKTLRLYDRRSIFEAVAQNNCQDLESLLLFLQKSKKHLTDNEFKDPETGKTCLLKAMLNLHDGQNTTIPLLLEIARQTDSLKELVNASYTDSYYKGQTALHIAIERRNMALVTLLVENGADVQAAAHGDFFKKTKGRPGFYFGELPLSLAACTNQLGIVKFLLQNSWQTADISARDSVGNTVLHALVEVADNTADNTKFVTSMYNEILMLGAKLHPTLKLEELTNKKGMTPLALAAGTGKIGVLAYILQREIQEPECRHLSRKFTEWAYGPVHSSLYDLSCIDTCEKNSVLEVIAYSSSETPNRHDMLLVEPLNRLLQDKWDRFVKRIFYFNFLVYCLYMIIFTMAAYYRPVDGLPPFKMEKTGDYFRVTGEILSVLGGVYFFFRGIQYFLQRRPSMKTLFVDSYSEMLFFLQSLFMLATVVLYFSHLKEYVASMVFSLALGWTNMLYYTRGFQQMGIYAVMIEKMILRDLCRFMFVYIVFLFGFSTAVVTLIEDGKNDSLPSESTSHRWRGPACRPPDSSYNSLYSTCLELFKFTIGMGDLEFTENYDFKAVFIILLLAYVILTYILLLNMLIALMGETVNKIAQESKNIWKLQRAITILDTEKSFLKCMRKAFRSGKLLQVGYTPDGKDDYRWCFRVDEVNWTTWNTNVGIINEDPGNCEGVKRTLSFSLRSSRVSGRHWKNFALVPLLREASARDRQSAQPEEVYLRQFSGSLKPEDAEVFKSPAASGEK
Lab note: compare inhibition at 1 µM against 90%. Equal or greater, write yes. Smaller, write no.

| chemical.structure | category |
| --- | --- |
| CC(C)(C)c1ccc(CCC(=O)Nc2ccc(-c3cccc(O)c3)c(CO)c2)cc1 | yes |
| O=C(CCc1ccc(C(F)(F)F)cc1)Nc1ccc(-n2ccnc2)c(C(F)(F)F)c1 | yes |
| O=C(/C=C/c1ccc(S(=O)(=O)C(F)(F)F)cc1)Nc1ccc(-n2cnc(Cl)c2Cl)c(C(F)(F)F)c1 | yes |
| O=C(CCc1ccc(F)c(F)c1)Nc1ccc(-n2ccnc2)c(C(F)(F)F)c1 | no |
| CC(C)(C)c1ccc(CCC(=O)Nc2ccc(-c3ccncc3)c(CO)c2)cc1 | no |
| CC(C)(C)c1ccc(CCC(=O)Nc2ccc(-c3ccccc3O)c(F)c2)cc1 | no |
| Cc1cn(-c2ccc(NC(=O)CCc3ccc(SC(F)(F)F)cc3)cc2C(F)(F)F)cn1 | yes |
